system_name: T1, human SIRP-α v2 (human)
T1 construct: also called Human v2; Human V2
experiment_description: SPR
measurement_label: Kd (pM)
Give bare numbers, in pM.

antibody 218 (antibody, V domains shown, also called AB218; S218) VH: DVQLVESGGGVVRPGESLTLSCTASGFTFTSSTMNWVRQAPGEGLDWVSSISTSGVITYYADSVKGRATISRDNSKNTLYLRLFSLRADDTAIYYCATDTFDHWGPGTLVTVSS VL: ALTQPASVSANPGETVKITCFGSSGNYGWFQQKSPGSAPVTVIHYNNKRPSDIPSRFSGSKSGSTGTLTITGVRAEDEAVYFCGAWETGSATFGAGTTLTVL ... 276
antibody 161 (antibody, V domains shown, also called S161) VH: DVQLVESGGGVVRPGESLRLSCAASGFTFSNFAMTWVRQAPGKGPEWVSLVSVTATTYYADSVKGRFTISRDNSKSTLYLQMNSLRAEDTAVYYCAKITWNNLFDYWGLGTLVTVSS VL: EIVLTQSPGTLSLSPGERATLSCRASQTVGSKLAWYQQKPGQAPRLLIYDSSSRASGIPDRFSGSGSGTDFTLTISSLQSEDSAVYYCQQHNDWPPYTFGGGTKVEIK ... 127
antibody 189 (antibody, V domains shown, also called S189) VH: DVQLVESGGGVVRPGESLRLSCAASGFTFSSSDMNWVRQAPGEGLEWVSLISGSGEITYYADSVKGRFTISRDNSKNTLYLQMNSLRAEDTAIYYCAKENNMYRFFDYWGLGTLVTVSS VL: ETVLTQSPGTLSLSPGERATLSCRASQSVYTYLAWYQQKPGQPPRLLIHAARNRAAGIPDRFSGSGSGTEFTLTISSLQSEDFAVYYCQQYYDRPPLTFGGGTKVEIK ... 1900
antibody 119 (antibody, V domains shown, also called AB119; S119) VH: DVQLLESGGGVVQPGGSLRLSCAASGFSFSNFAMTWVRQAPGEGLEWVSTIGSGDTYYADSVKGRFTISRDNSKNTLYLQMNSLRAEDTAVYYCAKDSTVSWSGDFFDYWGLGTLVTVSS VL: EIVLTQSPATLSVSPGERATFSCRASQNVKNDLAWYQQRPGQAPRLLIYAARIRETGIPERFSGSGSGTEFTLTITSLQSEDFAVYYCQQYYDWPPFTFGGGTKVEIK ... 79.9
antibody 120 (antibody, V domains shown, also called S120) VH: VQLVESGGGVVQPGGSLRLSCAASGFSFSNFAMTWVRQAPGEGLEWVSTIGSGDTYYADSVKGRFTISRDNSKNTLYLQMNSLRAEDTAVYYCAKDSTVSWSGDFFDYWGLGTRVTVSS VL: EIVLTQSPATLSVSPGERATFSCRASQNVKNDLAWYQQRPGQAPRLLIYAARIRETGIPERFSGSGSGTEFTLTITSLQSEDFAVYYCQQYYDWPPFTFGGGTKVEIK ... 85.6
antibody 135 (antibody, V domains shown, also called AB135; S135) VH: DVQLVESGGGVVRPGESLRLSCAASGFSFSIYAMSWVRQAPGEGLEWVSTIGADDTYYADSVKGRFTISRDNSKNTLYLQMNSLRAEDTAVYYCAKDSTVGWSGDFFDYWGLGTLVTVSS VL: EIVLTQSPATLSVSPGERVTFSCRASQNVRSDIAWYQQKPGQAPRLLIYAASSRDTGIPDRFSGSGSGTDFTLTISSLQSEDFGVYYCQQYYDWPPFTFGGGTKVEIK ... 29
antibody 149 (antibody, V domains shown, also called S149) VH: DVQLVESGGGVVRPGESLRLSCAASGFTFSNFAMNWVRQAPGEGLEWVSLISVTATTYYADSVKGRFTISRDNSKNTLYLQMNSLRAEDTAVYYCAKVTWNNLFDYWGLGTLVTVSS VL: EIVLTQSPGTLSLSPGERATLSCRASQPIDSYLAWYQQKPGQAPRLLIYNTVTRATGIPDRFSGSGSGTDFTLTINRLEPEDFAVYYCQHQYDWPPYIFGGGTKVEIK ... 238
antibody 116 (antibody, V domains shown, also called S116) VH: VQLVESGGGVVRPGESLRLSCAASGFSFSSYAMNWVRQAPGEGLEWVSRINSGGGGTDYAESVKGRFTISRDNSENTLYLQMNSLRAEDTAVYYCAKQYDWNSFFDYWGLGALVTVSS VL: ETVLTQSPATLSVSPGERATLSCRASQTVGSKLAWHQQKPGQAPRLLIYDATNRATGISDRFSGSRSGTDFTLTISSLQTEDSAVYYCQQYYYWPPYRFGGGTKVEIK ... 299

Consider the record given below.
Req: Find the recorded Kd belonging to antibody 115 (antibody, V domains shown, also called S115) VH: DVQLVESGGGVVRPGESLRLSCAASGFSFSSYAMNWVRQAPGEGLEWVSRINSGGGGTDYAESVKGRFTISRDNSENTLYLQMNSLRAEDTAVYYCAKQYDWNSFFDYWGLGALVTVSS VL: ETVLTQSPATLSVSPGERATLSCRASQTVGSKLAWHQQKPGQAPRLLIYDATNRATGISDRFSGSGSGTDFTLTISSLQTEDSAVYYCQQYYYWPPYRFGGGTKVEIK and report it.
Resp: 15

Source: patent US20210363269A1
